- measured_on: DRB1*0901
- test: binding to purified HLA
recorded_metric: IC50 (nM)

Here are 5 binders together with their reported answers.
AAAKFVAAWTLKAAA [SEQ ID NO: 4] = 28
AAAHFVAAWTLHAAA [H4.H12] = 21
AAAWFVAANTLHAAA [W4.N9.H12] = 33
AAAFFVAANTLKADA [F4.N9.D14] = 18
AAAYFVAAWTLHAAA [Y4.H12] = 18

a = AAAYFVAANTLHAAA [Y4.N9.H12]
b = AAAFFVAANTLHAAA [F4.N9.H12]
c = AAAYFVAAFTLHAAA [Y4.F9.H12]
Enquiry: Which order do these items take when sorted by rising IC50? List them. Return value: ordered labels per request.
Return: c, a, b
(c: 13 nM, a: 21 nM, b: 31 nM)

Values were extracted from patent US20160114035A1.
